# Tested on: SEM cells
# experimentalDetails: AUC of viability dose-response curve (% viability x log10 dose units); higher = less sensitive
# appliedConditions: RPMI 5 mM glucose + 10% FBS; 48 h
Each entry below carries its recorded AUC of viability dose-response curve.
Give the figure by itself; no unit, no explanation.

Known AUC of viability dose-response curve results, listed for orientation:
[[record]]
compound = "CC(C)(OCc1nn(Cc2ccccc2)c2ccccc12)C(=O)O"
propertymeasured = "AUC of viability dose-response curve"
assayvalue = 471

[[record]]
compound = "Cc1ccnc(N[S+](=O)([O-])c2ccc(NC(=O)Nc3ccc([S+](=O)([O-])Nc4nccc(C)n4)cc3)cc2)n1"
propertymeasured = "AUC of viability dose-response curve"
assayvalue = 180

[[record]]
compound = "CCc1nc(C(N)=O)c(Nc2ccc(N3CCC(N4CCN(C)CC4)CC3)c(OC)c2)nc1NC1CCOCC1"
propertymeasured = "AUC of viability dose-response curve"
assayvalue = 285

[[record]]
compound = "CO[C@H]1O[C@@H]2O[C@@]3(C)CC[C@H]4[C@H](C)CC[C@@H]([C@H]1C)[C@@]24OO3"
propertymeasured = "AUC of viability dose-response curve"
assayvalue = 456


In the following, a different compound is considered.
Ask: Find the recorded AUC of viability dose-response curve belonging to COc1cc(Oc2ccnc3cc(OC)c(OC)cc23)ccc1NC(=O)NC(C)c1nccs1 (stereo not given) and report it.
Reply: 440
